# Test system: U2OS
# Assay Notes: Multiplex assay against U2OS
# Format: toxicity, cell-based
# Test Context: human, 24 h, 1 µM, compound concentration 1 uM, replicate 2
Measurement Name: Population Fragmented Nuclei (%)
Please reply with the bare figure in % and do not write the unit itself.

Consider the reported Population Fragmented Nuclei (%) for these compounds:
{"Compound": "O=C(NCCN1CCC(n2c(=O)[nH]c3cc(Cl)ccc32)CC1)c1ccc(F)cc1 [HALOPEMIDE]", "Population Fragmented Nuclei (%)": 15}
{"Compound": "Cl.N=C(N)NC(=O)Cc1c(Cl)cccc1Cl [GUANFACINE HYDROCHLORIDE]", "Population Fragmented Nuclei (%)": 18}
{"Compound": "O=C1[C@H](Cc2ccc(O)cc2)N2C(=O)CCN(C(=O)NCc3ccccc3)[C@H]2CN1Cc1cccc2ccccc12", "Population Fragmented Nuclei (%)": 14}
{"Compound": "CC(C)c1noc(N2CCC(COc3ccc(-c4ccc(S(C)(=O)=O)cc4)nc3)CC2)n1 [GSK-1292263]", "Population Fragmented Nuclei (%)": 15}
{"Compound": "C[C@H](N)COC(=O)[C@@H](CCCCN)NC(=O)Cc1c(-c2ccc3ccccc3c2)[nH]c2c1ccc1ccccc12", "Population Fragmented Nuclei (%)": 16}

Query compound follows.
Tell me the measured Population Fragmented Nuclei (%) of CC(=O)Nc1cccc2c1c(Sc1ccc(Cl)cc1)c(C)n2CC(=O)O [AZD1981] , please.
16

* * *

# System: Fibroblast
# Assay Notes: Multiplex assay against human fibroblast
# Type: toxicity, cell-based
# Test Context: 24 h, 10 µM, compound concentration 10 uM, replicate 1
Label scheme for Population Healthy Nuclei (%): lower than 60% is not met, 60% and above is met.

{"Molecule": "O=C(NCCN1CCC(n2c(=O)[nH]c3cc(Cl)ccc32)CC1)c1ccc(F)cc1 [HALOPEMIDE]", "Test System": "Fibroblast", "Label": "not met"}
{"Molecule": "CC(=O)Nc1cccc2c1c(Sc1ccc(Cl)cc1)c(C)n2CC(=O)O", "Test System": "Fibroblast", "Label": "met"}
{"Molecule": "CN(C)C(=O)Cn1cc(-c2ccc(-c3cncc4ccccc34)cc2)cn1", "Test System": "Fibroblast", "Label": "met"}
{"Molecule": "Cc1c(CC(=O)O)c2cccnc2n1Cc1ccc(S(C)(=O)=O)cc1C(F)(F)F", "Test System": "Fibroblast", "Label": "met"}
{"Molecule": "N#Cc1cc(F)cc(-c2nc(-c3ccc(F)cn3)no2)c1", "Test System": "Fibroblast", "Label": "met"}
{"Molecule": "Cc1onc(-c2ccccc2Cl)c1C(=O)N(C)c1ccc(Cl)cc1", "Test System": "Fibroblast", "Label": "met"}
{"Molecule": "CCCCCC(O)/C=C/[C@H]1C(=O)CC(O)C1C/C=C\\CCCC(=O)O (some centres not stated)", "Test System": "Fibroblast", "Label": "met"}
{"Molecule": "CCc1cc2cc(NS(=O)(=O)c3ccc(C#N)cc3)ccc2n(CC)c1=O", "Test System": "Fibroblast", "Label": "not met"}
{"Molecule": "CN1CCN(c2cc(-c3ccccc3)nc(N)n2)CC1", "Test System": "Fibroblast", "Label": "met"}
{"Molecule": "Cl.NCCc1ccc(O)c(O)c1 [DOPAMINE HYDROCHLORIDE]", "Test System": "Fibroblast", "Label": "met"}

Hi, just wondering whether CN[C@@H](C)C(=O)N[C@H](C(=O)N1CCC[C@H]1C(=O)Nc1snnc1-c1ccccc1)C1CCCCC1 shows Population Healthy Nuclei (%) of 60% or higher.
not met

Check if Population Healthy Nuclei (%) >= 60% (inclusive). Item: Cc1cccc(NC(=O)CN2CCC(c3ccccn3)CC2)c1.Cl.Cl
met

Could you tell me if the measured Population Healthy Nuclei (%) of COc1ccccc1N1CCN(C[C@@H](C(=O)NC(C)(C)C)c2ccccc2)CC1.Cl.Cl reaches 60% or more?
met

Hi, just wondering whether CCC(=O)N1CCN(c2ccc(-n3c(=O)ccc4cnc5ccc(-c6cnc7ccccc7c6)cc5c43)cc2C(F)(F)F)CC1 shows Population Healthy Nuclei (%) of 60% or higher.
met

Confirm if Population Healthy Nuclei (%) reported for the molecule CCCCC1=NC2(CCCC2)C(=O)N1Cc1ccc(-c2ccccc2-c2nnn[nH]2)cc1 is 60% or above.
met

Identify whether the reported Population Healthy Nuclei (%) of the following molecule is 60% or greater: Cc1noc(-c2ccc(-c3ccc(CC(=O)O)cc3)cc2)c1NC(=O)O[C@H](C)c1ccccc1Cl
met

* * *

# Test system: Fibroblast
# Assay Notes: Multiplex assay against human fibroblast
# Type: toxicity, cell-based
# Test Context: 24 h, 1 µM, compound concentration 1 uM, replicate 2
// values below are reported Population Normal (%)
Please give a number only; it is taken to be in %.

Examples with answers:
{"Compound": "CCCCC1=NC2(CCCC2)C(=O)N1Cc1ccc(-c2ccccc2-c2nnn[nH]2)cc1 [IRBESARTAN]", "Observed Value": 96}
{"Compound": "Cc1cnc(-c2cc(N3CCN(C(=O)CCS(C)(=O)=O)CC3)ncc2Cl)c(C)c1", "Observed Value": 89}

Would you kindly share the measured Population Normal (%) for O=C(CCCc1ccccc1)Nc1nc2ccccc2c(=O)s1 ?
94

Given the compound CC(/C=C1\SC(=S)N(CCCC(=O)Nc2ccc(C(=O)O)c(O)c2)C1=O)=C\c1ccccc1 , what is its reported Population Normal (%)?
97

Tell me the measured Population Normal (%) of N#Cc1cc(F)cc(-c2nc(-c3ccc(F)cn3)no2)c1 , please.
92

* * *

# Test system: U2OS
# Assay Notes: Multiplex assay against U2OS
# Type: toxicity, cell-based
# Test Context: human, 24 h, 1 µM, compound concentration 1 uM, replicate 2
// Population Hoechst High Intensity Objects (%) lookup, one value per entry
Provide a numeric answer, followed by its unit.

Examples from the recorded data:
{"Molecule": "CCCOc1ccc2[nH]cc(C3=CCNCC3)c2n1.Cl", "Observed Value": "2%"}
{"Molecule": "Cc1sc2c(c1C)C(c1ccc(Cl)cc1)=N[C@@H](CC(=O)NCCCCCCCCNC(=O)COc1cccc3c1C(=O)N(C1CCC(=O)NC1=O)C3=O)c1nnc(C)n1-2 (stereo partly drawn)", "Observed Value": "2%"}
{"Molecule": "CN[C@@H](C)C(=O)N[C@H](C(=O)N1CCC[C@H]1C(=O)Nc1snnc1-c1ccccc1)C1CCCCC1", "Observed Value": "8%"}
{"Molecule": "COC[C@@H](c1ccc(C(F)(F)F)cc1)N1CCN(C2(C)CCN(C(=O)c3c(C)ncnc3C)CC2)C[C@@H]1C.O=C(O)/C=C\\C(=O)O [VICRIVIROC MALEATE]", "Observed Value": "4%"}
{"Molecule": "CC(=O)Nc1cccc2c1c(Sc1ccc(Cl)cc1)c(C)n2CC(=O)O", "Observed Value": "0%"}
{"Molecule": "N#Cc1c(Oc2cccc(OS(=O)(=O)CCCC(F)(F)F)c2)cccc1C(F)(F)F", "Observed Value": "1%"}
{"Molecule": "CC(C)c1noc(N2CCC(COc3ccc(-c4ccc(S(C)(=O)=O)cc4)nc3)CC2)n1", "Observed Value": "0%"}

Now, please, on to the next molecule.
// fetch U2OS Population Hoechst High Intensity Objects (%) for O=C1[C@H](Cc2ccc(O)cc2)N2C(=O)CCN(C(=O)NCc3ccccc3)[C@H]2CN1Cc1cccc2ccccc12
1%

* * *

# Tested on: HEK-293T
# Assay Notes: Multiplex assay against HEK293T
# Format: toxicity, cell-based
# Test Context: human, 48 h, 10 µM, compound concentration 10 uM, replicate 1
Measurement Name: Population Mitotic Cells (%)
Reply with just the number (in %).

Look over these answered cases.
{"Molecule": "NCCc1cn(S(=O)(=O)c2c(Cl)nc3sccn23)c2ccccc12.O=C(O)C(=O)O", "Population Mitotic Cells (%)": 46}
{"Molecule": "CN(C)C(=O)Cn1cc(-c2ccc(-c3cncc4ccccc34)cc2)cn1", "Population Mitotic Cells (%)": 33}
{"Molecule": "CC(/C=C1\\SC(=S)N(CCCC(=O)Nc2ccc(C(=O)O)c(O)c2)C1=O)=C\\c1ccccc1", "Population Mitotic Cells (%)": 75}
{"Molecule": "Cc1noc(-c2ccc(-c3ccc(CC(=O)O)cc3)cc2)c1NC(=O)O[C@H](C)c1ccccc1Cl", "Population Mitotic Cells (%)": 61}
{"Molecule": "CCCCCC(O)/C=C/[C@H]1C(=O)CC(O)C1C/C=C\\CCCC(=O)O (stereo partly drawn)", "Population Mitotic Cells (%)": 77}

So what does the record say about Population Mitotic Cells (%) for CCCOc1ccc2[nH]cc(C3=CCNCC3)c2n1.Cl ?
64

What value of Population Mitotic Cells (%) has been recorded for this entry: CN1CCN(c2cc(-c3ccccc3)nc(N)n2)CC1
83

Tell me the measured Population Mitotic Cells (%) of CCCCC1=NC2(CCCC2)C(=O)N1Cc1ccc(-c2ccccc2-c2nnn[nH]2)cc1 , please.
75

Numbers sourced from ChEMBL document CHEMBL5058577.
